Target: GalNAc(b1-4)Gal(b1-4)Glc
Experiment: glycan array binding signal (z-score within array); higher = stronger binding
Details: glycan notation: IUPAC condensed, linker removed
Only a selection was taken, and the strongest signals are over-represented in it overall.
Observed property: glycan array binding signal (z-score)
Hey, just send me the number, nothing else.

The value of glycan array binding signal (z-score) measured for the binder Strep tagII-anxA1 (Homo sapiens), P04083 (protein) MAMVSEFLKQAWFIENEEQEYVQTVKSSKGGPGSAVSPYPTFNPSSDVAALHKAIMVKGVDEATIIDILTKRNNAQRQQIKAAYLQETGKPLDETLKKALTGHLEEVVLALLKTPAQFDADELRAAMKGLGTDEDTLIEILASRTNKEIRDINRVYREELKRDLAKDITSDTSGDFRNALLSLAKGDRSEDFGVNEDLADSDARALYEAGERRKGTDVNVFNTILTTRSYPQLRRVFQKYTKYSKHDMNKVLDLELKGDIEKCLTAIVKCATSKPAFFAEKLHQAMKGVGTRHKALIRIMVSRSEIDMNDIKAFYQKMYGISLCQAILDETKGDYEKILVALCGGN turned out to be 1.79

The value of glycan array binding signal (z-score) measured for the binder SCA (Schizophyllum commune) (protein) MGIDQGVYLITNAGSGTAATLKDGYVKGWERIKGKEQLNQLWFVKSVKTSASDPGYAAFNLATNKVLDLEKGLADRGTPILGWDYHEGDNQHWVIKKQADGKYYKIQSVKTQTFVDLNNGGKDNGTKIQGWVGSWDETNSHQRWVFNQFSATGSRIKSILDTHPKIHGKVIVEWPDRIYFTPDQYIFEAIWAKTGLADIKPRDPLFQSEAYEKVFKGWVVSRAQEIIKVDGFDILVGSLSLVEKSTQKIKVLDVSVRTSDDKSPDLSQIVFFDPESGRTLVDIPEGYEVNSVII turned out to be -0.162
